Assay: Minimal inhibitory concentration (antibacterial activity) against […] ERY2 (SPNE)
Assay type: functional
Conditions: Streptococcus pneumoniae; read-out: MIC
Quantity measured: MIC (µg/mL)

1 = CCCc1ccccc1OCC(O)COc1ccc(/C=C2\SC(=O)NC2=O)cc1 (stereo unspecified)
2 = CCCc1cc(Cl)c(Cl)cc1OCC(O)COc1ccc(/C=C2\SC(=O)NC2=O)cc1 (stereo unspecified)
Parameter check: reported MIC is higher for which label, 1 or 2 ? // output: label of the selected item
2
(2: 4 µg/mL, 1: 2 µg/mL)

* * *

Experiment: Minimal inhibitory concentration (antibacterial activity) against […] ERY2 (SPNE)
Format: functional
Settings: Streptococcus pneumoniae; read-out: MIC
Quantity measured: MIC (mg/L)

I = CCCc1c(OC[C@H](O)COc2ccc(/C=C3\SC(=O)NC3=O)cc2)ccc(Cl)c1Cl
II = CCCc1c(OCC(O)COc2ccc(/C=C3\NC(=O)NC3=O)cc2)ccc(Cl)c1Cl (centres undefined)
III = O=C1NC(=O)/C(=C/c2ccc(OCC(O)COc3ccccc3)cc2)S1 (centres undefined)
Parameters: sort_by = MIC; order = desc; input = items above. Provide the ranking by listing each label in its place in the requested order.
III, II, I
(III: 64 mg/L, II: 4 mg/L, I: 1 mg/L)

The origin of these recorded values is ChEMBL document CHEMBL1136326.
